B1: VH:VL chains; a variant is named by its letters at X, in order (parent)
chain 1: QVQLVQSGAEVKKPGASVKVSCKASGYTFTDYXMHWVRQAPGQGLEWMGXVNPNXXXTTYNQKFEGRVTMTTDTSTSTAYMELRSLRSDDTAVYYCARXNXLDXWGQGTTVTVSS
chain 2: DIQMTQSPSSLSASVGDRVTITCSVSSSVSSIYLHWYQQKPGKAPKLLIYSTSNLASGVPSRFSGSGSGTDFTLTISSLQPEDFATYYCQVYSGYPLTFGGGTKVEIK

Variants of: B1
Assay: yeast display scFab, FACS + sequencing
resultType: non-specific binding call

var: VAKRDSAS
resultType: non-specific binding call
readoutValue: no binding
--
var: YKKRGAGV
resultType: non-specific binding call
readoutValue: binds
--
var: ATGGDDGF
resultType: non-specific binding call
readoutValue: no binding
--
var: FRTRSSLA
resultType: non-specific binding call
readoutValue: binds
--
var: YTERGDAV
resultType: non-specific binding call
readoutValue: no binding
--
var: VTGGSDVY
resultType: non-specific binding call
readoutValue: no binding
--
var: DARGGSAD
resultType: non-specific binding call
readoutValue: no binding
--
var: VKAKGAAA
resultType: non-specific binding call
readoutValue: binds
--
var: VEGGGDGD
resultType: non-specific binding call
readoutValue: no binding
--
var: STRKSYAA
resultType: non-specific binding call
readoutValue: binds
--
var: VKGRSDWV
resultType: non-specific binding call
readoutValue: no binding
--
var: VRTADVGV
resultType: non-specific binding call
readoutValue: binds
--
var: VAKKNASF
resultType: non-specific binding call
readoutValue: no binding
--
var: DRTTNAGD
resultType: non-specific binding call
readoutValue: no binding
--
var: DREEGDWV
resultType: non-specific binding call
readoutValue: no binding
--
var: VTGEDDGS
resultType: non-specific binding call
readoutValue: no binding
--
var: FAARAFGV
resultType: non-specific binding call
readoutValue: binds
--
var: VTRGADGV
resultType: non-specific binding call
readoutValue: no binding
--
var: DAGTAFSS
resultType: non-specific binding call
readoutValue: binds
--
var: DEGGTSLD
resultType: non-specific binding call
readoutValue: no binding
--
var: YKRAAYGD
resultType: non-specific binding call
readoutValue: binds
--
var: FRGESAGV
resultType: non-specific binding call
readoutValue: binds
--
var: FRARGAGV
resultType: non-specific binding call
readoutValue: binds
--
var: FKAGSSGV
resultType: non-specific binding call
readoutValue: binds
--
var: YATEDDWV
resultType: non-specific binding call
readoutValue: no binding
--
var: FRGKGSAV
resultType: non-specific binding call
readoutValue: binds
--
var: YKARGSGA
resultType: non-specific binding call
readoutValue: binds
--
var: DATGGYAV
resultType: non-specific binding call
readoutValue: no binding
--
var: STTKSDGV
resultType: non-specific binding call
readoutValue: no binding
--
var: YKRGSAGF
resultType: non-specific binding call
readoutValue: binds
--
var: YRGRGFGS
resultType: non-specific binding call
readoutValue: binds
--
var: YRRRGSGS
resultType: non-specific binding call
readoutValue: binds
--
var: SGTKGYWD
resultType: non-specific binding call
readoutValue: binds
--
var: YKERASGV
resultType: non-specific binding call
readoutValue: binds
--
var: YTARGSAA
resultType: non-specific binding call
readoutValue: binds
--
var: YRKGAAVV
resultType: non-specific binding call
readoutValue: binds
--
var: SRGRGYSV
resultType: non-specific binding call
readoutValue: binds
--
var: DKREADGA
resultType: non-specific binding call
readoutValue: no binding
--
var: YRAGGYGD
resultType: non-specific binding call
readoutValue: binds
--
var: VAEKGSGA
resultType: non-specific binding call
readoutValue: no binding
--
var: VTGEDAGD
resultType: non-specific binding call
readoutValue: no binding
--
var: SKTKSDVV
resultType: non-specific binding call
readoutValue: no binding
--
var: FKKGSAVV
resultType: non-specific binding call
readoutValue: binds
--
var: YKGKGSLY
resultType: non-specific binding call
readoutValue: binds
--
var: YRRRGSGV
resultType: non-specific binding call
readoutValue: binds
--
var: YRGRDSVS
resultType: non-specific binding call
readoutValue: binds
--
var: SRARGAAA
resultType: non-specific binding call
readoutValue: binds
--
var: SKGRSDGV
resultType: non-specific binding call
readoutValue: no binding
--
var: SKGKGVGA
resultType: non-specific binding call
readoutValue: binds
--
var: SEARSALA
resultType: non-specific binding call
readoutValue: no binding
--
var: YRGRGYGA
resultType: non-specific binding call
readoutValue: binds
--
var: YRGKASVD
resultType: non-specific binding call
readoutValue: binds
--
var: YRGAGAGA
resultType: non-specific binding call
readoutValue: binds
--
var: YTGEADAS
resultType: non-specific binding call
readoutValue: no binding
--
var: FTETGSVD
resultType: non-specific binding call
readoutValue: no binding
--
var: VRERGASD
resultType: non-specific binding call
readoutValue: binds
--
var: SRGRGAVS
resultType: non-specific binding call
readoutValue: binds
--
var: SGRGNSVD
resultType: non-specific binding call
readoutValue: no binding
--
var: YRRGSAVD
resultType: non-specific binding call
readoutValue: binds
--
var: YKGRASAV
resultType: non-specific binding call
readoutValue: binds
